- Tested on: Trypanosoma brucei
- Procedure Details: Stabilization of 5'-FAM /3'-Tamra labelled Trypanosoma brucei F21T G-quadruplex DNA at 2 x 10^-6 M by FRET melting assay
Activity calls are given as the source filed them. No cut-off for these calls is given here.
Please answer using one outcome listed in label 1 = active, label 0 = inactive

Worked cases, answers included:
>>> answer_label("CN(C)CCCN1C(=O)c2ccc3c4c(c(NCCCn5cc(CCO[C@@H]6O[C@H](CO)[C@@H](O)[C@H](O)[C@H]6O)nn5)cc(c24)C1=O)C(=O)N(CCCN(C)C)C3=O")
"label 1"
>>> answer_label("CN(C)CCCN1C(=O)c2ccc3c4c(c(NCCCn5cc(COCCOCCOCCO[C@@H]6O[C@H](CO)[C@@H](O)[C@H](O)[C@H]6O)nn5)cc(c24)C1=O)C(=O)N(CCCN(C)C)C3=O")
"label 1"
>>> answer_label("CN(C)CCCN1C(=O)c2ccc3c4c(c(NCCCn5cc(COCCOCCOCCO[C@@H]6O[C@H](CO)[C@@H](O[C@@H]7O[C@H](CO)[C@H](O)[C@H](O)[C@H]7O)[C@H](O)[C@H]6O)nn5)cc(c24)C1=O)C(=O)N(CCCN(C)C)C3=O")
"label 1"

From here, focus on the item given below.
Which outcome was entered for the compound CN(C)CCCc1cc2c3c(c(NCCCn4cc(CCO[C@@H]5O[C@H](CO)[C@@H](O)[C@H](O)[C@H]5O)nn4)cc4c3c1C(=O)N(CCCN(C)C)C4=O)C(=O)N(CCCN(C)C)C2=O in this test?
label 0

---

Let's look at some compounds and their measured Ka.
- System: Trypanosoma brucei
- Procedure Details: Binding affinity to Trypanosoma brucei EBR1 G-quadruplex DNA assessed as association constant by fluorescence titration assay
Write the value in ×10⁶ /M as a bare number.

>>> measurement("CN(C)CCCN1C(=O)c2ccc3c4c(c(NCCCn5cc(CCO[C@@H]6O[C@H](CO)[C@@H](O)[C@H](O)[C@H]6O)nn5)cc(c24)C1=O)C(=O)N(CCCN(C)C)C3=O")
1.2

With those in mind, consider the next compound.
Answer with reported Ka of CN(C)CCCN1C(=O)c2ccc3c4c(c(NCCCn5cc(COCCOCCOCCO[C@@H]6O[C@H](CO)[C@@H](O[C@@H]7O[C@H](CO)[C@H](O)[C@H](O)[C@H]7O)[C@H](O)[C@H]6O)nn5)cc(c24)C1=O)C(=O)N(CCCN(C)C)C3=O
1.1

---

- Procedure Details: Selectivity index, ratio of IC50 for human MRC5 cells to IC50 for Trypanosoma brucei Lister 427, antigenic type MiTat 1.2, clone 221a
- Assay type: toxicity
- Experimental Parameters: MRC5 cells versus Trypanosoma brucei Lister 427, read-out: Ratio IC50
Value Type: selectivity ratio

// worked examples, selectivity ratio included
>>> measurement("CN(C)CCCc1cc2c3c(c(NCCCn4cc(CCO[C@@H]5O[C@H](CO)[C@@H](O[C@@H]6O[C@H](CO)[C@H](O)[C@H](O)[C@H]6O)[C@H](O)[C@H]5O)nn4)cc4c3c1C(=O)N(CCCN(C)C)C4=O)C(=O)N(CCCN(C)C)C2=O")
13.5
>>> measurement("CN(C)CCCN1C(=O)c2ccc3c4c(c(NCCCn5cc(CO[C@@H]6O[C@H](CO)[C@@H](O[C@@H]7O[C@H](CO)[C@H](O)[C@H](O)[C@H]7O)[C@H](O)[C@H]6O)nn5)cc(c24)C1=O)C(=O)N(CCCN(C)C)C3=O")
3.4
>>> measurement("CN(C)CCCN1C(=O)c2ccc3c4c(c(NCCCn5cc(COCCOCCOCCO[C@@H]6O[C@H](CO)[C@@H](O[C@@H]7O[C@H](CO)[C@H](O)[C@H](O)[C@H]7O)[C@H](O)[C@H]6O)nn5)cc(c24)C1=O)C(=O)N(CCCN(C)C)C3=O")
6
>>> measurement("CN(C)CCCN1C(=O)c2ccc3c4c(c(NCCCn5cc(CCO[C@@H]6O[C@H](CO)[C@@H](O[C@@H]7O[C@H](CO)[C@H](O)[C@H](O)[C@H]7O)[C@H](O)[C@H]6O)nn5)cc(c24)C1=O)C(=O)N(CCCN(C)C)C3=O")
3.5
>>> measurement("CN(C)CCCc1cc2c3c(c(NCCCn4cc(CCO[C@H]5O[C@H](CO)[C@@H](O)[C@H](O)[C@@H]5O)nn4)cc4c3c1C(=O)N(CCCN(C)C)C4=O)C(=O)N(CCCN(C)C)C2=O")
16.6
>>> measurement("CN(C)CCCN1C(=O)c2ccc3c4c(c(NCCCn5cc(COCCOCCOCCO[C@@H]6O[C@H](CO)[C@@H](O)[C@H](O)[C@H]6O)nn5)cc(c24)C1=O)C(=O)N(CCCN(C)C)C3=O")
1.6
>>> measurement("CN(C)CCCN1C(=O)c2ccc3c4c(c(NCCCn5cc(CCO[C@H]6O[C@H](CO)[C@@H](O)[C@H](O)[C@@H]6O)nn5)cc(c24)C1=O)C(=O)N(CCCN(C)C)C3=O")
0.9
>>> measurement("CN(C)CCCc1cc2c3c(c(NCCCn4cc(COCCOCCOCCO[C@H]5O[C@H](CO)[C@@H](O)[C@H](O)[C@@H]5O)nn4)cc4c3c1C(=O)N(CCCN(C)C)C4=O)C(=O)N(CCCN(C)C)C2=O")
34
>>> measurement("CN(C)CCCc1cc2c3c(c(NCCCn4cc(CO[C@H]5O[C@H](CO)[C@@H](O)[C@H](O)[C@@H]5O)nn4)cc4c3c1C(=O)N(CCCN(C)C)C4=O)C(=O)N(CCCN(C)C)C2=O")
15
>>> measurement("CN(C)CCCN1C(=O)c2ccc3c4c(c(NCCCn5cc(CO[C@@H]6O[C@H](CO)[C@@H](O)[C@H](O)[C@H]6O)nn5)cc(c24)C1=O)C(=O)N(CCCN(C)C)C3=O")
1.2

Assign selectivity ratio to the following record: CN(C)CCCN1C(=O)c2ccc3c4c(c(NCCCn5cc(CO[C@@H]6O[C@H](CO)[C@@H](O[C@H]7O[C@H](CO)[C@@H](O)[C@H](O)[C@H]7O)[C@H](O)[C@H]6O)nn5)cc(c24)C1=O)C(=O)N(CCCN(C)C)C3=O
16.1

Hello, please tell me recorded selectivity ratio for this one: CN(C)CCCN1C(=O)c2ccc3c4c(c(NCCCn5cc(COCCOCCOCCO[C@@H]6O[C@H](CO)[C@@H](O[C@H]7O[C@H](CO)[C@@H](O)[C@H](O)[C@H]7O)[C@H](O)[C@H]6O)nn5)cc(c24)C1=O)C(=O)N(CCCN(C)C)C3=O
82.5

Quick one: give measured selectivity ratio for CN(C)CCCN1C(=O)c2ccc3c4c(c(NCCCn5cc(COCCOCCOCCO[C@H]6O[C@H](CO)[C@@H](O)[C@H](O)[C@@H]6O)nn5)cc(c24)C1=O)C(=O)N(CCCN(C)C)C3=O
10.5

Look up selectivity ratio of CN(C)CCCN1C(=O)c2ccc3c4c(c(NCCCn5cc(CCO[C@@H]6O[C@H](CO)[C@@H](O[C@H]7O[C@H](CO)[C@@H](O)[C@H](O)[C@H]7O)[C@H](O)[C@H]6O)nn5)cc(c24)C1=O)C(=O)N(CCCN(C)C)C3=O and report it.
1.7

---

- Test system: Leishmania major
- Procedure Details: Leishmaniacidal activity against Leishmania major MHOM/IL/80/Friedlin promastigotes after 72 hrs by MTT assay
- Type: functional, organism-based
Category scheme (IC50): lower bin (below 0.4 µM), middle bin (0.4 µM to below 10 µM), upper bin (10 µM or more)

Some solved entries appear below for comparison.
>>> answer_label("CN(C)CCCN1C(=O)c2ccc3c4c(c(NCCCn5cc(COCCOCCOCCO[C@@H]6O[C@H](CO)[C@@H](O[C@H]7O[C@H](CO)[C@@H](O)[C@H](O)[C@H]7O)[C@H](O)[C@H]6O)nn5)cc(c24)C1=O)C(=O)N(CCCN(C)C)C3=O")
"lower bin"
>>> answer_label("CN(C)CCCc1cc2c3c(c(NCCCn4cc(CO[C@@H]5O[C@H](CO)[C@@H](O[C@@H]6O[C@H](CO)[C@H](O)[C@H](O)[C@H]6O)[C@H](O)[C@H]5O)nn4)cc4c3c1C(=O)N(CCCN(C)C)C4=O)C(=O)N(CCCN(C)C)C2=O")
"upper bin"

Here is the next item to consider.
Hi there! Could you help me figure out the category for CN(C)CCCc1cc2c3c(c(NCCCn4cc(COCCOCCOCCO[C@H]5O[C@H](CO)[C@@H](O)[C@H](O)[C@@H]5O)nn4)cc4c3c1C(=O)N(CCCN(C)C)C4=O)C(=O)N(CCCN(C)C)C2=O please?
middle bin

---

Catalogue of compounds with associated IC50
- System: Leishmania major
- Procedure Details: Leishmaniacidal activity against Leishmania major MHOM/IL/80/Friedlin promastigotes after 72 hrs by MTT assay
- Type: functional, organism-based
Express it in µM; write the number only.

>>> measurement("CN(C)CCCN1C(=O)c2ccc3c4c(c(NCCCn5cc(CCO[C@@H]6O[C@H](CO)[C@@H](O[C@H]7O[C@H](CO)[C@@H](O)[C@H](O)[C@H]7O)[C@H](O)[C@H]6O)nn5)cc(c24)C1=O)C(=O)N(CCCN(C)C)C3=O")
4.68
>>> measurement("CN(C)CCCN1C(=O)c2ccc3c4c(c(NCCCn5cc(CCO[C@@H]6O[C@H](CO)[C@@H](O[C@@H]7O[C@H](CO)[C@H](O)[C@H](O)[C@H]7O)[C@H](O)[C@H]6O)nn5)cc(c24)C1=O)C(=O)N(CCCN(C)C)C3=O")
1.93
>>> measurement("CN(C)CCCc1cc2c3c(c(NCCCn4cc(CO[C@@H]5O[C@H](CO)[C@@H](O[C@H]6O[C@H](CO)[C@@H](O)[C@H](O)[C@H]6O)[C@H](O)[C@H]5O)nn4)cc4c3c1C(=O)N(CCCN(C)C)C4=O)C(=O)N(CCCN(C)C)C2=O")
11.4

Alright, here's another compound for you.
Respond only with IC50 recorded for CN(C)CCCN1C(=O)c2ccc3c4c(c(NCCCn5cc(CO[C@@H]6O[C@H](CO)[C@@H](O[C@@H]7O[C@H](CO)[C@H](O)[C@H](O)[C@H]7O)[C@H](O)[C@H]6O)nn5)cc(c24)C1=O)C(=O)N(CCCN(C)C)C3=O
1.03
